Data provenance is patent US9752049B2.

Assay: physchem
Details: organic solvent or mixture, Solubility Limit
measured-attribute: solubility (mM)

INSERT INTO assay_data (smiles_string, result_number) VALUES
  ('CCCCCCCCCCCCCC(=O)O', 300);
